Record form. Attribute: IC50. Fill in for each entry.
Test system: MDA‐MB‐231 triple‐negative breast cancer cell line
Experiment: MTS cell viability assay, MDA-MB-231
Format: cell-based
Conditions: Homo sapiens, MDA-MB-231, 72 h, MDA‐MB‐231 cells, 72 h treatment
Provide only the numeric value, understood in µM.

Query string: Request body: readout IC50, system MDA‐MB‐231 triple‐negative breast cancer cell line, query `Nc1ccc(-c2nc(NCc3ccc(C(=O)NO)cc3)nc(N3CCOCC3)n2)cn1` . Return the value.
Result string: 13.1

Query string: Request body: readout IC50, system MDA‐MB‐231 triple‐negative breast cancer cell line, query `O=C(NO)c1ccc(CNc2nc(-c3ccccc3)nc(N3CCOCC3)n2)cc1` . Return the value.
Result string: 5.8

Query string: Request body: readout IC50, system MDA‐MB‐231 triple‐negative breast cancer cell line, query `O=C(NO)c1ccc(CNc2nc(-c3cccnc3)nc(N3CCOCC3)n2)cc1` . Return the value.
Result string: 9.43

Query string: Request body: readout IC50, system MDA‐MB‐231 triple‐negative breast cancer cell line, query `Nc1ncc(-c2nc(NCc3ccc(C(=O)NO)cc3)nc(N3CCOCC3)n2)cn1` . Return the value.
Result string: 10.4

###

Record form. Attribute: IC50. Fill in for each entry.
Molecular target: UniProt:P42336
Sequence (P42336 whole entry): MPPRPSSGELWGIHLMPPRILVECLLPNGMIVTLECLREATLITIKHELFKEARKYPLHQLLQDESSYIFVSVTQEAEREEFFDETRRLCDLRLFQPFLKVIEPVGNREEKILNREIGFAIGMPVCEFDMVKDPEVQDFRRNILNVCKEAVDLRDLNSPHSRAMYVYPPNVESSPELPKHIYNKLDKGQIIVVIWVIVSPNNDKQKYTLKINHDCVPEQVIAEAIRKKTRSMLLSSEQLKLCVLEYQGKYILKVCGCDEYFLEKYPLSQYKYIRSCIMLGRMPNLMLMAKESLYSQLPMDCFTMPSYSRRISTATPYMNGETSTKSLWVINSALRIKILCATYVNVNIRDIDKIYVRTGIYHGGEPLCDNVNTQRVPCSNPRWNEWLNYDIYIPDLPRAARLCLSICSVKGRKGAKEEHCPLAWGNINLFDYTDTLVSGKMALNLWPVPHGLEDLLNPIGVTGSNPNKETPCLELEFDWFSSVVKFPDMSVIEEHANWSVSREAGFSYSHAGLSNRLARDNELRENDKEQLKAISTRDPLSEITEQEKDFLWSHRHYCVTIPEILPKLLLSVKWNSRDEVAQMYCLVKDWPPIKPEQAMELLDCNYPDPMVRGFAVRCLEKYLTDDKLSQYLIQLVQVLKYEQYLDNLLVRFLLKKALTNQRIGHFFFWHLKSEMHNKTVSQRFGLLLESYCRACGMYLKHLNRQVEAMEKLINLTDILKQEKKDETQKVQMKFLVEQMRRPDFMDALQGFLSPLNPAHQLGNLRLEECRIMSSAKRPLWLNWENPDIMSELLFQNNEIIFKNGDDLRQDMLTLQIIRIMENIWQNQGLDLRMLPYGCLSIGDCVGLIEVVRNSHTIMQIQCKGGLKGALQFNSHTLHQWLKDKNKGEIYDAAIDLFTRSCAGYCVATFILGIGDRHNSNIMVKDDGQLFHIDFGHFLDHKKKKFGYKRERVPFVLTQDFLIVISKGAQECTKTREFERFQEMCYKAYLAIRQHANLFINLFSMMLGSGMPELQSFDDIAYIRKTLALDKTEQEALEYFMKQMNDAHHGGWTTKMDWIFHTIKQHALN
Sequence (P27986 whole entry partner): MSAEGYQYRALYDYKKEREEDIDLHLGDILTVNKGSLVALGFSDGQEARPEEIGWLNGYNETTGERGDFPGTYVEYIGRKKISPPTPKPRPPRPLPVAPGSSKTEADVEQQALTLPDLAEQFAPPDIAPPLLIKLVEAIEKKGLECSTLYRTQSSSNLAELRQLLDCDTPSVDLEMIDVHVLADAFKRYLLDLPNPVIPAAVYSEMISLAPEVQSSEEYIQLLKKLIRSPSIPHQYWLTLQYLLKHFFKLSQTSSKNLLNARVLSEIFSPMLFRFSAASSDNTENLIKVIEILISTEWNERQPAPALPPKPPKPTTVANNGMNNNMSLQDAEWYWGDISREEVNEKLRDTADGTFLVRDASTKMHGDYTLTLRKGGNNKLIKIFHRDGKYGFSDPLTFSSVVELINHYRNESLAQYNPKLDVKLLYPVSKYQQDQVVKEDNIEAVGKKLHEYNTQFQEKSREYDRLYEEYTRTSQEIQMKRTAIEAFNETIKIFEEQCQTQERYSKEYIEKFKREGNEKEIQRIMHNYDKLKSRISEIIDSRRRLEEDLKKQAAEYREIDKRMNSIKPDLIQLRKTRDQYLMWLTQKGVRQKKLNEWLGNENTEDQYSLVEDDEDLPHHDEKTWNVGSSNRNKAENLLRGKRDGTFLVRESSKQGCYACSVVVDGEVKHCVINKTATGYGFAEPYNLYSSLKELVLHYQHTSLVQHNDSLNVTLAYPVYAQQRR
Assay: PI3Kα inhibition, 10-dose IC50 (Reaction Biology Corporation)
Format: biochemical
Provide only the numeric value, understood in nM.

Query string: IC50 lookup needed for `COc1ccc(-c2nc(NCc3ccc(C(=O)NO)cc3)nc(N3CCOCC3)n2)cn1` , thanks.
Result string: 236

Query string: IC50 lookup needed for `O=C(NO)c1ccc(CNc2nc(-c3cccc(O)c3)nc(N3CCOCC3)n2)cc1` , thanks.
Result string: 17.5

###

Record form. Attribute: IC50. Fill in for each entry.
Test system: MDA‐MB‐231 triple‐negative breast cancer cell line
Assay: MTS cell viability assay, MDA-MB-231
Assay type: cell-based
Settings: Homo sapiens, MDA-MB-231, 72 h, MDA‐MB‐231 cells, 72 h treatment

Query string: Request body: readout IC50, system MDA‐MB‐231 triple‐negative breast cancer cell line, query `O=C(NO)c1ccc(CNc2nc(-c3cccc(O)c3)nc(N3CCOCC3)n2)cc1` . Return the value.
Result string: < 5 µM

Query string: Request body: readout IC50, system MDA‐MB‐231 triple‐negative breast cancer cell line, query COc1ccc(-c2nc(N3CCOCC3)c3sc(CN(C)c4ncc(C(=O)NO)cn4)cc3n2)cn1 [Fimepinostat, fimepinostat, reference compound] . Return the value.
Result string: < 0.3 µM

Query string: Request body: readout IC50, system MDA‐MB‐231 triple‐negative breast cancer cell line, query `COc1ccc(-c2nc(NCc3ccc(C(=O)NO)cc3)nc(N3CCOCC3)n2)cn1` . Return the value.
Result string: < 5 µM
